Cited source: patent US20130149383A1

Experiment: Equilibrium solubility determination in liquid vehicle (HPLC)
Type: physicochemical
Settings: 40 °C, thermodynamic from solid; guaifenesin in liquid vehicle, 40° for two days, n=3
METRIC: solubility thermodynamic at 2 days
Form field: result (number plus unit)

Supply reported solubility thermodynamic at 2 days belonging to this compound: COc1ccccc1OCC(O)CO (stereo not shown) [Guaifenesin, 3-(2-methoxyphenoxy)-1,2-propanediol]
9590 µg/mL
